MEASUREMENT TARGET: human TLR7 (Homo sapiens)
Construct: HA; host or cells: 293XL-hTLR7-HA (HEK293)
Sequence (Q9NYK1 27-1049): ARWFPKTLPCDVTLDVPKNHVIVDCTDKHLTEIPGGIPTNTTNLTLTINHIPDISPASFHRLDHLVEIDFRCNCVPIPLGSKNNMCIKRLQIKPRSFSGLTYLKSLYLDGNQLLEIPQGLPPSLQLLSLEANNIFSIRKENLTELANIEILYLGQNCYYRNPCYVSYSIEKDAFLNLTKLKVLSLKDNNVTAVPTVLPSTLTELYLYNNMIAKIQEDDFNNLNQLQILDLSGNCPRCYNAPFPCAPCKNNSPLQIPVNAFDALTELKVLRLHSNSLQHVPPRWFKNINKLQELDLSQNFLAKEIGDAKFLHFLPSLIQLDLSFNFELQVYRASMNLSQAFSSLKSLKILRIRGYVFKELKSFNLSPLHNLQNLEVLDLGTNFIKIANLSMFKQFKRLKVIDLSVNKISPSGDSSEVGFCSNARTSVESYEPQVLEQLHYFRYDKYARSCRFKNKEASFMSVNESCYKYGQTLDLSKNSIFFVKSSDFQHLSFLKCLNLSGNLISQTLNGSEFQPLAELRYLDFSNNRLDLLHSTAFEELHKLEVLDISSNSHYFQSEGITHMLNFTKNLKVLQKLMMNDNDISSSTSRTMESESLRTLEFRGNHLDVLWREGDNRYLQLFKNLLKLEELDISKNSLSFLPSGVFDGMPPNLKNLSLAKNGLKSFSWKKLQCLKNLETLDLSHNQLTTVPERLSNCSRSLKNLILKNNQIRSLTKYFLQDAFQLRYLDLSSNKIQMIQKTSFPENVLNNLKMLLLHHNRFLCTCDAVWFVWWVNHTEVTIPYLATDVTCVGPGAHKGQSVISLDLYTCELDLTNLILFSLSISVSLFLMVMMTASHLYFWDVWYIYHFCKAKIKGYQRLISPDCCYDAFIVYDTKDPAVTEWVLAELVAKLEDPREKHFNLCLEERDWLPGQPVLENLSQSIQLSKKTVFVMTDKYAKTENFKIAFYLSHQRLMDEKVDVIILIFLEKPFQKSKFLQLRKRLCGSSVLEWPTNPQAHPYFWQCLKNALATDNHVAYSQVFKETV
ASSAY SUMMARY: HEK-TLR7 NF-κB-luciferase reporter, R848 stimulation
Assay type: cell-based
ASSAY CONTEXT: ASO 500 nM; relative to R848 only, given as fraction
REPORTED PROPERTY: TLR7 500 nM (averaged NF-κB-Luciferase level relative to R848 condition)

>  <SEQUENCE CONTENT>
CACTTCGTGGGGTCCT (antisense; LNA-modified, pattern not given here) [HPRT LNA-664 V1]

>  <OBSERVED RESULT>
0.240

$$$$
>  <SEQUENCE CONTENT>
GCATCCACCACGTCGT (antisense; LNA-modified, pattern not given here) [EGFR-3267 LNA V1]

>  <OBSERVED RESULT>
0.085

$$$$
>  <SEQUENCE CONTENT>
GCAGGCTCAGTGATGT (antisense; LNA-modified, pattern not given here) [CTNN2B-1642 LNA V1]

>  <OBSERVED RESULT>
0.189

$$$$
>  <SEQUENCE CONTENT>
GGCTGGAATCCGAGTT (antisense; LNA-modified, pattern not given here) [EGFR-4705 LNA KL]

>  <OBSERVED RESULT>
0.041

$$$$
>  <SEQUENCE CONTENT>
TGCACACTTCGTACCC (antisense; LNA-modified, pattern not given here) [CAMSAP1-4916 LNA V1]

>  <OBSERVED RESULT>
0.299

$$$$
>  <SEQUENCE CONTENT>
ACCACGTCTGCTCTAA (antisense; LNA-modified, pattern not given here) [CAMSAP1-1635 LNA KL]

>  <OBSERVED RESULT>
0.532

$$$$
>  <SEQUENCE CONTENT>
TCGTAGTTGCTTCCTA (antisense; LNA-modified, pattern not given here) [MB21D1-1181 LNA KL]

>  <OBSERVED RESULT>
0.198

$$$$
>  <SEQUENCE CONTENT>
TTCGTGGGGTCCTTTT (antisense; LNA-modified, pattern not given here) [HPRT LNA-661 V1]

>  <OBSERVED RESULT>
0.178

$$$$
>  <SEQUENCE CONTENT>
TTCAGGCGCTGCCTTG (antisense; LNA-modified, pattern not given here) [CAMSAP1-2709 LNA V1]

>  <OBSERVED RESULT>
0.181

$$$$
>  <SEQUENCE CONTENT>
AATCCAACAAAGTCTG (antisense; LNA-modified, pattern not given here) [HPRT LNA-692 KL]

>  <OBSERVED RESULT>
0.433

$$$$
>  <SEQUENCE CONTENT>
ATGTGATGGCCTCCCA (antisense; LNA-modified, pattern not given here) [HPRT LNA-335 V1]

>  <OBSERVED RESULT>
0.128

$$$$
>  <SEQUENCE CONTENT>
GACTATACGCGCAATA (antisense; LNA-modified, pattern not given here) [NC5 LNA PS 3-10-3]

>  <OBSERVED RESULT>
0.098

$$$$
>  <SEQUENCE CONTENT>
CCACTTGGCAGACCAT (antisense; LNA-modified, pattern not given here) [CTNN2B-1575 LNA V1]

>  <OBSERVED RESULT>
0.470

$$$$
>  <SEQUENCE CONTENT>
TGGTCCACAACCCCTT (antisense; LNA-modified, pattern not given here) [MB21D1-697 LNA V1]

>  <OBSERVED RESULT>
0.545

$$$$
